Method: Clearance in rat at 100 mg/kg
Format: ADME, organism-based
Parameters: dose 100 mg/kg
Condition Parameters: in vivo
Measured Property: clearance (mL/min/kg)
Response body: numeric value in mL/min/kg, unit text excluded.

Per the records, this molecule ( O=C(Nc1ccc(Cl)cc1)c1cccnc1NCc1ccncc1 ) has clearance equal to 73.3

====

Method: AUC in rat at 100 mg/kg
Type: ADME, organism-based
Parameters: dose 100 mg/kg
Condition Parameters: plasma
Measured Property: AUC (ng·h/mL)
Report the figure in ng·h/mL without appending any unit label.

Reported AUC for O=C(Nc1ccc(Cl)cc1)c1cccnc1NCc1ccncc1 was 20000
